Target: Cytochrome P450 3A4 (Homo sapiens)
Sequence (P08684 whole entry): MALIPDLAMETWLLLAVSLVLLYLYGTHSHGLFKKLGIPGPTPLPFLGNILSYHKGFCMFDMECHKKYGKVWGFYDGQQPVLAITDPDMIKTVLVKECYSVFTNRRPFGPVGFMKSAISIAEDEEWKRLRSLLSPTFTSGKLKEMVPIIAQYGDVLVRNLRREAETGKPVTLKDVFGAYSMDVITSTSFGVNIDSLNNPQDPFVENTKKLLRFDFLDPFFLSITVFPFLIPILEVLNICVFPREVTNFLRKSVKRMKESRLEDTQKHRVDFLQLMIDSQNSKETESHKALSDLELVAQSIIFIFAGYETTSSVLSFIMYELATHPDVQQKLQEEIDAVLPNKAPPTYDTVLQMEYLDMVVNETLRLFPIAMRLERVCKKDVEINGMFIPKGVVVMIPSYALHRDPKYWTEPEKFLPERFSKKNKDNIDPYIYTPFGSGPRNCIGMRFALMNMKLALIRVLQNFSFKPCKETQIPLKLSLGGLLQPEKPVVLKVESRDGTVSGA
readout_label: IC50

Hello, please tell me recorded IC50 for this one: "COc1cnc2ccc(=O)n(CCN3CCC(c4nc5cc(C#N)c(C)cc5[nH]4)CC3)c2c1"
9.4 µM

Field: next compound
Indicate the recorded IC50 value for this compound: "COc1cnc2ccc(=O)n(CCN3CCN(c4nc5cc(C#N)c(C)cc5[nH]4)CC3)c2c1"
20 µM

----------
Assay: Octanol-water partition coefficient, logD of the compound at pH 7.4 by shake-flask method
Assay type: physicochemical
Recorded logD for the following compounds
In your answer, state the number alone without any accompanying words.

Below: 8 compounds and their reported logD.
Respond only with logD recorded for "COc1cnc2ccc(=O)n(CCN3CCC(c4nc5cc(Cl)c(F)cc5[nH]4)CC3)c2c1"
4

Report measured logD; entry is "COc1cnc2ccc(=O)n(CCN3CCN(c4nc5cc(C#N)c(C)cc5[nH]4)CC3)c2c1"
3.2

Complete the entry with logD for "O=c1ccc2ncc(F)cc2n1CCN1CCN(c2nc3cc(C(F)(F)F)ccc3[nH]2)CC1"
3.7

Consider the compound "COc1cnc2ccc(=O)n(CCN3CCC(c4nc5cc(C(F)(F)F)ccc5[nH]4)CC3)c2c1" and give its recorded logD.
4

Give the measured logD for "COc1cnc2ccc(=O)n(CCN3CCC(c4c[nH]c5cc(C(F)(F)F)ccc45)CC3)c2c1"
4

Consider the compound "N#Cc1ccc2[nH]c(C3CCN(CCn4c(=O)ccc5ncc(Oc6cccnc6)cc54)CC3)nc2c1" and give its recorded logD.
2.9

Report logD for COc1cnc2ccc(=O)n(CCN3CCC(C4C(=O)Nc5ccc(Cl)cc54)CC3)c2c1 (stereo not drawn)
2.8

Identify the reported logD for the following entry. "COc1cnc2ccc(=O)n(CCN3CCC(c4nc5cc(C#N)ccc5[nH]4)CC3)c2c1"
2.4

Continuing:
Supply recorded logD for "COc1cnc2ccc(=O)n(CCN3CCN(c4nc5cc(C(F)(F)F)ccc5[nH]4)CC3)c2c1" here.
2.8

----------
Test: AUC (0 to infinity) in Wistar rat at 1 mg/kg, iv
Assay type: ADME, organism-based
Parameters: time infinity, dose 1 mg/kg, route intravenous
Settings: plasma
Measured AUC(0-inf) by item
The response must be a number in µg·h/mL with no trailing unit.

Identify AUC(0-inf) associated with the compound "COc1cnc2ccc(=O)n(CCN3CCC(c4nc5cc(C#N)c(C)cc5[nH]4)CC3)c2c1"
0.47

New cases:
Report measured AUC(0-inf); entry is "COc1cnc2ccc(=O)n(CCN3CCN(c4nc5cc(C#N)c(C)cc5[nH]4)CC3)c2c1"
0.52

----------
Biological target: Cytochrome P450 2D6 (Homo sapiens, UniProt P10635)
Sequence (P10635 whole entry): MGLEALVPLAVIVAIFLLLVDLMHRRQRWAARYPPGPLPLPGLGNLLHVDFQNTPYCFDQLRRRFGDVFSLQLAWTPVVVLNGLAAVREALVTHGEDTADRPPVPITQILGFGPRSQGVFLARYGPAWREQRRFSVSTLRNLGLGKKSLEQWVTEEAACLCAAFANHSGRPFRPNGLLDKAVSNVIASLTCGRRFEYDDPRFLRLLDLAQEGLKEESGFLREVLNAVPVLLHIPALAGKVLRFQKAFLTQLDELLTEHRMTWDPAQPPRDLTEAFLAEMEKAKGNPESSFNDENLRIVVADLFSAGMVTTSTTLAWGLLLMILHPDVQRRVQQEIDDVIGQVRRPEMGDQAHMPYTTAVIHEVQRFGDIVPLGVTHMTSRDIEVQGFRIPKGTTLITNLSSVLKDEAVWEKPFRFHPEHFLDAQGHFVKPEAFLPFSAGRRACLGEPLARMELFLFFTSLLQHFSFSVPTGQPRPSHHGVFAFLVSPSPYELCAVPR
This listing pairs molecules with measured IC50.
Use µM as the unit, but write only the number.

State measured IC50 of the molecule "COc1cnc2ccc(=O)n(CCN3CCC(c4nc5cc(C#N)c(C)cc5[nH]4)CC3)c2c1" with Cytochrome P450 2D6 (Homo sapiens, UniProt P10635).
28

Attention now shifts to the item below.
Give IC50 for "COc1cnc2ccc(=O)n(CCN3CCN(c4nc5cc(C#N)c(C)cc5[nH]4)CC3)c2c1" tested on Cytochrome P450 2D6 (Homo sapiens, UniProt P10635).
20

----------
Entries and their measured bioavailability follow.
Experiment: Oral bioavailability in Wistar rat at 10 mg/kg
Assay type: ADME, organism-based
Settings: in vivo
Provide the reading as a plain figure in %.

Provide bioavailability value for the following compound: "COc1cnc2ccc(=O)n(CCN3CCN(c4nc5cc(C#N)c(C)cc5[nH]4)CC3)c2c1"
3.3

Now, please, on to the next compound.
Return bioavailability (reported value) for this compound: "COc1cnc2ccc(=O)n(CCN3CCC(c4nc5cc(C#N)c(C)cc5[nH]4)CC3)c2c1"
1.1

----------
Entries with reported pIC50 on Voltage-gated inwardly rectifying potassium channel KCNH2 (Homo sapiens, UniProt Q12809)
Sequence (Q12809 whole entry): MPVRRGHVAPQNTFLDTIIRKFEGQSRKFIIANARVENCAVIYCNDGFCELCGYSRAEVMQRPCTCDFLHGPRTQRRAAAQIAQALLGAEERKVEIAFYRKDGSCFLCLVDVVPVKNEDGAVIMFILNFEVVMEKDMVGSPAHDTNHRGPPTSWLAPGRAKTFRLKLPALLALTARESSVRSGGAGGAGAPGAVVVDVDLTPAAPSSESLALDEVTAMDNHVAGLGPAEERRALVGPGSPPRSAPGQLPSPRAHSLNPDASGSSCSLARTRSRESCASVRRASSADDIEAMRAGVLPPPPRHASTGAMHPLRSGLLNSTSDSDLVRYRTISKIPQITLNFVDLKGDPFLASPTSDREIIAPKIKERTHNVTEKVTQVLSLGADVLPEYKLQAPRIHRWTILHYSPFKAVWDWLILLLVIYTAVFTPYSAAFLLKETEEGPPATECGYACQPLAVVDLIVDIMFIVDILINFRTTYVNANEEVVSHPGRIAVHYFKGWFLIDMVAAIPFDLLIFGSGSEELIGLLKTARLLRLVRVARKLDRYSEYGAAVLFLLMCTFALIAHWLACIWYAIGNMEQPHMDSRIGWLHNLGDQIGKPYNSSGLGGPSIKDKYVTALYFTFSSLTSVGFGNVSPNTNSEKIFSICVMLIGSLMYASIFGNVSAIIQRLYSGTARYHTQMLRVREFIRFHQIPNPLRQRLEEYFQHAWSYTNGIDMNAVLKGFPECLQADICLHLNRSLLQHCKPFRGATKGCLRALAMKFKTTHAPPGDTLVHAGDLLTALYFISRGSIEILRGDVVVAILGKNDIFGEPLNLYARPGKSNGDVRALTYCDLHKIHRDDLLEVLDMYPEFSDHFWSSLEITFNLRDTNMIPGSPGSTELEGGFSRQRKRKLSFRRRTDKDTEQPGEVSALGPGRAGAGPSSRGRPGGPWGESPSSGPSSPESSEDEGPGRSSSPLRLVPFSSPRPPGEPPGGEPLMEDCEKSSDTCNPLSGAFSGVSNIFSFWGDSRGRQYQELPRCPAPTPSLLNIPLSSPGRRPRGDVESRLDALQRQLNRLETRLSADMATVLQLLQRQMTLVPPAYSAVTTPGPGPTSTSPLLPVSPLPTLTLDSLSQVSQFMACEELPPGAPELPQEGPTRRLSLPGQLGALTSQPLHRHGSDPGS
Interpret pIC50 as the negative base-10 log of the concentration measured in mol/L.

// below: answered compounds
For the compound "COc1cnc2ncc(=O)n(CCN3CCC(c4nc5cc(Cl)c(C)cc5[nH]4)CC3)c2c1" , report pIC50.
5.00

Answer with the recorded pIC50 for the compound listed here: "COc1cnc2ccc(=O)n(CCN3CCN(c4nc5cc(C(F)(F)F)ccc5[nH]4)CC3)c2c1"
5.00

// below: pIC50 requested for another compound
Answer with reported pIC50 of COc1cnc2ccc(=O)n(CCN3CCC(C4C(=O)Nc5ccc(Cl)cc54)CC3)c2c1 (centres undefined)
5.32

----------
Assay: Octanol-water partition coefficient, logD of the compound at pH 7.4 by shake-flask method
Assay type: physicochemical
logD for assorted compounds
// return just the number, without any unit appended

Worked examples, 8 compounds total:
Dear colleague, please send me the reported logD for "Cc1cc2[nH]c(C3CCN(CCn4c(=O)ccc5ncc(F)cc54)CC3)nc2cc1Cl" when you can.
3.7

Identify measured logD associated with "COc1cnc2ccc(=O)n(CCN3CCC(c4nc5cc(Cl)c(C)cc5[nH]4)CC3)c2c1"
3.8

Determine its reported logD: "NS(=O)(=O)c1ccc(Oc2cnc3ccc(=O)n(CCN4CCC(c5nc6cc(C(F)(F)F)ccc6[nH]5)CC4)c3c2)cc1"
2.4

Provide logD value for the following compound: "COc1cnc2ccc(=O)n(CCN3CCC(c4c[nH]c5ccc(C#N)cc45)CC3)c2c1"
3.3

Identify measured logD corresponding to "N#Cc1ccc2[nH]c(C3CCN(CCn4c(=O)ccc5ncc(Oc6ccc(S(N)(=O)=O)cc6)cc54)CC3)nc2c1"
2.2

Using known records, supply logD for "COc1cnc2ccc(=O)n(CCN3CCC(c4nc5cc(C#N)c(C)cc5[nH]4)CC3)c2c1"
2.8

Kindly indicate its recorded logD. Item: "COc1cnc2ccc(=O)n(CCN3CCC(c4nc5cc(Cl)ccc5[nH]4)CC3)c2c1"
3.6

Identify measured logD corresponding to "COc1cnc2ccc(=O)n(CCN3CCN(c4nc5ccccc5[nH]4)CC3)c2c1"
2.4

More entries:
Read the entry "COc1cnc2ncc(=O)n(CCN3CCC(c4nc5cc(Cl)c(C)cc5[nH]4)CC3)c2c1" and write its reported logD.
3.5
